- experiment_summary: Intravenous and buccal pharmacokinetics of Physostigmine in rats (plasma levels by HPLC with fluorimetric detector)
- Type: in vivo, male Lewis rats
- condition: 0.2 mg/kg; rat plasma; intravenous, 200 μg/kg, Physostigmine hemisulfate in normal saline; FIG. 1; read-out: plasma half-life (terminal half-life, t1/2)
metric: half-life (min)
Return type: number; implicit unit min.

Query string: Entry CNC(=O)Oc1ccc2c(c1)[C@]1(C)CCN(C)[C@@H]1N2C needs its half-life filled in; supply it.
Result string: 25
